Organism: Sus scrofa
method.notes: Inhibition of porcine kidney Trehalase at 1000 uM relative to control
reported.endpoint: inhibition (%)

[[record]]
line_notation = "CCCCCCCN1C[C@H](O)[C@@H](O)[C@@H]1CO"
observed_result = 9.6

[[record]]
line_notation = "CCCCCCCN1C[C@@H](O)[C@H](O)[C@H]1CO"
observed_result = 4.7

[[record]]
line_notation = "CCCCCCC[C@@H]1N[C@@H](CO)[C@H](O)[C@H]1O"
observed_result = 6.3

[[record]]
line_notation = "CCCCCCC[C@H]1N[C@H](CO)[C@@H](O)[C@@H]1O"
observed_result = 22.2

